Hello, the source for this data is ChEMBL document CHEMBL1201862, in case you need it.

- System: NCI-H522
- Test name: NCI tumour cell line growth inhibition, 48 h
Calls of active or inactive are those of the source. Rule as the data show it: active = GI50 up to about 1.1 µM and inactive = higher.
Would you mind telling me the reported GI50 of each entry?

Problem: // output GI50; input COC(=O)C1=C(C(=O)OC)C23CC1C1C(C(=O)OC)=C(C(=O)OC)C12C1C=CC3C2C(=O)OC(=O)C21 (centres undefined) ; system NCI-H522
Solution: 22.4 µM (inactive)

Problem: # lookup: NCI-H522 GI50, key = "Cc1cc(OCC(=O)N/N=C/C(Br)=C/c2ccccc2)nc(SCC(=O)N/N=C/C(Br)=C/c2ccccc2)n1"
Solution: 26.6 µM (inactive)

Problem: Write down the reported GI50 (system: NCI-H522) of "COC(=O)c1ccc(/N=N/N(C)COc2ccc(C#N)cc2)cc1"
Solution: > 100 µM (inactive)

Problem: Enter recorded GI50 with NCI-H522 for "CC(C)(C)N/N=C(\C(=O)Nc1ccc([N+](=O)[O-])cc1[N+](=O)[O-])c1nc2ccc([N+](=O)[O-])cc2nc1O" here.
Solution: 66.7 µM (inactive)

Problem: State GI50 on NCI-H522. Entry: "O=C1C[C@@H]2[C@@H](C=CC23CCCC3)N1O"
Solution: > 100 µM (inactive)

Problem: Enter measured GI50, system NCI-H522, for the compound shown: C1OC1CN1CCN(CC2CO2)CC1 (centres undefined)
Solution: > 100 µM (inactive)

Problem: # lookup: NCI-H522 GI50, key = "Cc1ccc2c(=O)c(-c3n[nH]c(=S)s3)c[nH]c2n1"
Solution: 82.8 µM (inactive)

Problem: Enter recorded GI50 with NCI-H522 for CC1CCC2(NC1)OC1CC3C4CC=C5CC(OC6OC(CO)C(OC7OC(C)C(O)C(O)C7O)C(O)C6OC6OC(C)C(O)C(O)C6O)CCC5(C)C4CCC3(C)C1C2C (centres undefined) here.
Solution: 1.7 µM (inactive)

Problem: Look up and report measured GI50 (NCI-H522) for the following compound: C=C1C(=O)OC2CCN3CC=C(COC(=O)C(C)(O)C4(CO4)C1C)C23 (centres undefined)
Solution: > 100 µM (inactive)
